Measured pIC50 by item
test system: NCI-H1299; experiment: cells; settings: Homo sapiens, NCI-H1299, 48 h
Description: Antitumor activity against human NCI-H1299 cells assessed as inhibition of cell viability incubated for 48 hrs by MTT assay
pIC50 is defined as minus the log10 of a concentration measured in mol/L.

// worked examples, pIC50 included
COc1cc(OC)c2c(=O)[nH]c(-c3cc(C)c(OCC(=O)NNc4ncc5cc(C(=O)N(C)C)n(C6CCCC6)c5n4)c(C)c3)nc2c1: 5.06
CN(C)C(=O)c1cc2cnc(Nc3ccc(N4CCN(C(=O)COc5ccc(-c6nc7ccc(F)cc7c(=O)[nH]6)cc5)CC4)cn3)nc2n1C1CCCC1: 5.02

Then this molecule:
response.value for COc1cc(-c2nc3ccc(F)cc3c(=O)[nH]2)cc(OC)c1OCC(=O)N1CCN(c2ccc(Nc3ncc4cc(C(=O)N(C)C)n(C5CCCC5)c4n3)nc2)CC1 (field: pIC50) = 5.40
